Test system: HUVEC/MSC spheroids viability
assayOverview: Human HUVEC/MSC cell line growth inhibition [KRAS2];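 note: percent of DMSO vehicle control luminescence so 100% = untreated viability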
cond: second compound 10 µM; first compound 3.16 µM; active compounds read low
Entries and their measured viability, T/C follow.
endpointName: viability, T/C (%)

[[record]]
molecule = "Cn1nccc1Nc1nccc(-c2cc3c(s2)C(C)(C)N(CCN2CCOCC2)C3=O)n1 + COc1cc2nc(C)nc(NC(C)c3cc(N)cc(C(F)(F)F)c3)c2cc1OC1CCOC1"
target = "HUVEC/MSC spheroids viability"
endpointname = "viability, T/C"
observedmeasurement = 33.6

[[record]]
molecule = "O=C(c1cc(Cc2n[nH]c(=O)c3ccccc23)ccc1F)N1CCN(C(=O)C2CC2)CC1 + CC1OCC2(CCN(c3cnc(Sc4ccnc(N)c4Cl)c(N)n3)CC2)C1N"
target = "HUVEC/MSC spheroids viability"
endpointname = "viability, T/C"
observedmeasurement = 81.5

[[record]]
molecule = "CCNC(=O)CC1N=C(c2ccc(Cl)cc2)c2cc(OC)ccc2-n2c(C)nnc21 (stereo not given) + C=CC(=O)N1CCN(c2nc(=O)n(-c3c(C)ccnc3C(C)C)c3nc(-c4c(O)cccc4F)c(F)cc23)C(C)C1"
target = "HUVEC/MSC spheroids viability"
endpointname = "viability, T/C"
observedmeasurement = 179

[[record]]
molecule = "O=C(c1cc(Cc2n[nH]c(=O)c3ccccc23)ccc1F)N1CCN(C(=O)C2CC2)CC1 + C=CC(=O)N1CCN(c2nc(=O)n(-c3c(C)ccnc3C(C)C)c3nc(-c4c(O)cccc4F)c(F)cc23)C(C)C1"
target = "HUVEC/MSC spheroids viability"
endpointname = "viability, T/C"
observedmeasurement = 126

[[record]]
molecule = "COc1cc(Nc2ncc3c(n2)-c2ccc(Cl)cc2C(c2c(F)cccc2OC)=NC3)ccc1C(=O)O + COc1cc2nc(C)nc(NC(C)c3cc(N)cc(C(F)(F)F)c3)c2cc1OC1CCOC1"
target = "HUVEC/MSC spheroids viability"
endpointname = "viability, T/C"
observedmeasurement = 74.9


---

System: HUVEC/MSC spheroids viability
assayOverview: Human HUVEC/MSC cell line growth inhibition [KRAS2];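 note: percent of DMSO vehicle control luminescence so 100% = untreated viability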
cond: second compound 0.1 µM; first compound 0.00316 µM; active compounds read low
Description: Multicellular complex tumor spheroid response to RAS pathway inhibitors in combination with a targeted agents in patient-derived cell lines with oncogenic KRAS variants from multiple cancer types A high-throughput screen of multi-cell type tumor spheroids was designed to identify active combinations of targeted small molecules and KRAS pathway inhibitors. […] Compounds. […] If the clinical Cmax for an agent had not been determined, the highest concentration tested was 10 microM. […]
Below, each of the compounds is paired with its reported viability, T/C value.
endpointName: viability, T/C (%)

[[record]]
compound = "CCN1CCN(Cc2ccc(Nc3ncc(F)c(-c4cc(F)c5nc(C)n(C(C)C)c5c4)n3)nc2)CC1 + CC1OCC2(CCN(c3cnc(Sc4ccnc(N)c4Cl)c(N)n3)CC2)C1N"
endpointname = "viability, T/C"
observedmeasurement = 111

[[record]]
compound = "CC(C)n1nc(-c2ccc3oc(N)nc3c2)c2c(N)ncnc21 + C=CC(=O)N1CCN(c2nc(=O)n(-c3c(C)ccnc3C(C)C)c3nc(-c4c(O)cccc4F)c(F)cc23)C(C)C1"
endpointname = "viability, T/C"
observedmeasurement = 63.4

[[record]]
compound = "CCN1CCN(Cc2ccc(Nc3ncc(F)c(-c4cc(F)c5nc(C)n(C(C)C)c5c4)n3)nc2)CC1 + CNCc1ccccc1-c1csc(C(C)Nc2nc(C)nc3cc(OC)c(OC)cc23)c1"
endpointname = "viability, T/C"
observedmeasurement = 91

[[record]]
compound = "Cn1ncnc1[C@H]1c2n[nH]c(=O)c3cc(F)cc(c23)N[C@@H]1c1ccc(F)cc1 + C=CC(=O)N1CCN(c2nc(=O)n(-c3c(C)ccnc3C(C)C)c3nc(-c4c(O)cccc4F)c(F)cc23)C(C)C1"
endpointname = "viability, T/C"
observedmeasurement = 101

[[record]]
compound = "CN(C)C/C=C/C(=O)Nc1cc2c(Nc3ccc(F)c(Cl)c3)ncnc2cc1O[C@H]1CCOC1 + CNCc1ccccc1-c1csc(C(C)Nc2nc(C)nc3cc(OC)c(OC)cc23)c1"
endpointname = "viability, T/C"
observedmeasurement = 77.4

[[record]]
compound = "CC(C)n1nc(-c2ccc3oc(N)nc3c2)c2c(N)ncnc21 + CNCc1ccccc1-c1csc(C(C)Nc2nc(C)nc3cc(OC)c(OC)cc23)c1"
endpointname = "viability, T/C"
observedmeasurement = 49.9

[[record]]
compound = "CC(C)n1nc(-c2ccc3oc(N)nc3c2)c2c(N)ncnc21 + COc1cc2nc(C)nc(NC(C)c3cc(N)cc(C(F)(F)F)c3)c2cc1OC1CCOC1"
endpointname = "viability, T/C"
observedmeasurement = 55.5

[[record]]
compound = "Cn1ncnc1[C@H]1c2n[nH]c(=O)c3cc(F)cc(c23)N[C@@H]1c1ccc(F)cc1 + CC1OCC2(CCN(c3cnc(Sc4ccnc(N)c4Cl)c(N)n3)CC2)C1N"
endpointname = "viability, T/C"
observedmeasurement = 99.9

[[record]]
compound = "CC(C)n1nc(-c2ccc3oc(N)nc3c2)c2c(N)ncnc21 + CC1OCC2(CCN(c3cnc(Sc4ccnc(N)c4Cl)c(N)n3)CC2)C1N"
endpointname = "viability, T/C"
observedmeasurement = 63.3

[[record]]
compound = "CCN1CCN(Cc2ccc(Nc3ncc(F)c(-c4cc(F)c5nc(C)n(C(C)C)c5c4)n3)nc2)CC1 + C=CC(=O)N1CCN(c2nc(=O)n(-c3c(C)ccnc3C(C)C)c3nc(-c4c(O)cccc4F)c(F)cc23)C(C)C1"
endpointname = "viability, T/C"
observedmeasurement = 96.8

[[record]]
compound = "CN(C)C/C=C/C(=O)Nc1cc2c(Nc3ccc(F)c(Cl)c3)ncnc2cc1O[C@H]1CCOC1 + CC1OCC2(CCN(c3cnc(Sc4ccnc(N)c4Cl)c(N)n3)CC2)C1N"
endpointname = "viability, T/C"
observedmeasurement = 105

[[record]]
compound = "CN(C)C/C=C/C(=O)Nc1cc2c(Nc3ccc(F)c(Cl)c3)ncnc2cc1O[C@H]1CCOC1 + C=CC(=O)N1CCN(c2nc(=O)n(-c3c(C)ccnc3C(C)C)c3nc(-c4c(O)cccc4F)c(F)cc23)C(C)C1"
endpointname = "viability, T/C"
observedmeasurement = 85.7

[[record]]
compound = "CN(C)C/C=C/C(=O)Nc1cc2c(Nc3ccc(F)c(Cl)c3)ncnc2cc1O[C@H]1CCOC1 + COc1cc2nc(C)nc(NC(C)c3cc(N)cc(C(F)(F)F)c3)c2cc1OC1CCOC1"
endpointname = "viability, T/C"
observedmeasurement = 96.8

